target: UniProtKB P08684; assay: Reversible inhibition of CYP3A4 in human liver microsomes assessed as residual activity at 5 uM using midazolam as substrate preincubated for 30 mins followed by substrate addition measured after 20 mins by LC-MS/MS analysis relative to control; type: ADME, Microsome; conditions: probe midazolam, time 50 min, read-out: Activity
endpoint: activity at 20 min, 5 µM (%)
Express it in %; write the number only.

Under UniProtKB P08684: activity at 20 min, 5 µM value of CCn1cc(NC(=O)c2coc(-c3ccncc3)n2)c(C(N)=O)n1 ?
70

Under UniProtKB P08684: activity at 20 min, 5 µM value of CCn1cc(NC(=O)c2csc(-c3ccncc3)n2)c(C(N)=O)n1 ?
74

Under UniProtKB P08684: activity at 20 min, 5 µM value of CCn1cc(NC(=O)c2coc(-c3ccnc(C)c3)n2)c(C(N)=O)n1 ?
100

---

system: CYP1A2; experiment: Induction of CYP1A2 mRNA expression in human HepaRG cells assessed as fold change at 10 uM incubated for 48 hrs; format: ADME, cell-based; settings: read-out: FC
endpoint: fold induction at 48 h, 10 µM

What does the record list as fold induction at 48 h, 10 µM for COCCn1cc(NC(=O)c2coc(-c3ccnc(C)c3)n2)c(C(N)=O)n1 ?
15

---

target: Interleukin-1 receptor-associated kinase 4 (Homo sapiens, UniProt Q9NWZ3); experiment: Inhibition of human IRAK4 using biotinylated FGLARFSRFAGSSPSQSSMVARTQTVRGT peptide as substrate incubated for 1 hr in presence of ATP by ELISA assay
Sequence (Q9NWZ3 whole entry): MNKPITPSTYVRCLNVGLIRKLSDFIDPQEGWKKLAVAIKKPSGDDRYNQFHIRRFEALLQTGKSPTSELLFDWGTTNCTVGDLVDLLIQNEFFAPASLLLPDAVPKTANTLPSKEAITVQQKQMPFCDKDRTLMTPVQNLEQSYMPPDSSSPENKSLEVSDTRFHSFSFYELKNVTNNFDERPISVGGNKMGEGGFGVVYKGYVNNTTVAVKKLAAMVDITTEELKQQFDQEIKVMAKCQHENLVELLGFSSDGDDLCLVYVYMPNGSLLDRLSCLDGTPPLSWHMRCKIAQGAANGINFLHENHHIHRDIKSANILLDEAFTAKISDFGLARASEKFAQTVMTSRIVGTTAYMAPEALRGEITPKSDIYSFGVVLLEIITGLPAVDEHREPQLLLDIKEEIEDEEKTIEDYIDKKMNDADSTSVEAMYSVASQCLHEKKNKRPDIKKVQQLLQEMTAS
endpoint: IC50

Cc1cc(-c2nc(C(=O)Nc3cn(C4CCN(C)CC4)nc3C(N)=O)co2)ccn1 : 18 nM
NC(=O)c1nn(C2CCOCC2)cc1NC(=O)c1coc(-c2ccncc2F)n1 : 82 nM
Cc1cc(-c2ccc(C(=O)Nc3cn(C4CCOCC4)nc3C(N)=O)o2)ccn1 : 13 nM
Cc1cc(-c2nc(C(=O)Nc3cn(CC4(C)COC4)nc3C(N)=O)co2)ccn1 : 150 nM
Cc1cc(-c2nc(C(=O)Nc3cn(CC4CCOC4)nc3C(N)=O)co2)ccn1 (stereo not drawn) : 34 nM
NC(=O)c1nn(C2CCOCC2)cc1NC(=O)c1coc(-c2ccnc(CO)c2)n1 : 52 nM
NC(=O)c1nn(C2CCOCC2)cc1NC(=O)c1coc(-c2ccc(F)cc2)n1 : 26 nM

What does the record list as IC50 for CC(=O)N1CCC(n2cc(NC(=O)c3coc(-c4ccnc(C)c4)n3)c(C(N)=O)n2)CC1 ?
17 nM

---

Reported fold induction at 48 h, 5 µM values for the following molecules.
tested on: CYP1A2; assay: Induction of CYP1A2 mRNA expression in human HepaRG cells assessed as fold change at 5 uM incubated for 48 hrs; type: ADME, cell-based; settings: read-out: FC
Please reply with the value in numeric form only.

CCn1cc(NC(=O)c2coc(-c3ccnc(C)c3)n2)c(C(N)=O)n1 : 16

# ---- query molecule ----
What does the record list as fold induction at 48 h, 5 µM for CCCCn1cc(NC(=O)c2coc(-c3ccnc(C)c3)n2)c(C(N)=O)n1 ?
8.9

---

target: CYP3A4 (Homo sapiens, UniProt P08684); test: Time dependent inhibition of CYP3A4 in human liver microsomes assessed as residual activity at 5 uM using midazolam as substrate preincubated for 30 mins followed by substrate addition measured after 20 mins by LC-MS/MS analysis relative to control; assay type: ADME, Microsome; settings: probe midazolam, read-out: Activity
Sequence (P08684 whole entry): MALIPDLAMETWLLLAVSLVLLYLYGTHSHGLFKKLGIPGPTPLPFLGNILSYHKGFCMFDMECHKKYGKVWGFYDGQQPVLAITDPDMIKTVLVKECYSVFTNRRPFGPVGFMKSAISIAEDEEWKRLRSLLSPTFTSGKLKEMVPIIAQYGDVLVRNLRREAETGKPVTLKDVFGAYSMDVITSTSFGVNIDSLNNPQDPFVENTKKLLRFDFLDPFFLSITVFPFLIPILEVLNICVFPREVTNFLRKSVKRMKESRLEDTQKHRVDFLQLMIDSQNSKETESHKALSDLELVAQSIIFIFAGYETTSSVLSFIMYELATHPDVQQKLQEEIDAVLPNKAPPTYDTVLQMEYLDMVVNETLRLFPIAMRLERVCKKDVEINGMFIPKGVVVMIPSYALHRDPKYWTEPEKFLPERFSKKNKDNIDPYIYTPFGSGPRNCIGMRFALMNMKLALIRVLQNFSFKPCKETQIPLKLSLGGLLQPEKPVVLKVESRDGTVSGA
endpoint: activity at 20 min, 5 µM (%)
Express it in %; write the number only.

CCn1cc(NC(=O)c2coc(-c3ccnc(C)c3)n2)c(C(N)=O)n1 : 108

What does the record list as activity at 20 min, 5 µM for CCn1cc(NC(=O)c2csc(-c3ccncc3)n2)c(C(N)=O)n1 ?
78

What does the record list as activity at 20 min, 5 µM for CCn1cc(NC(=O)c2coc(-c3ccncc3)n2)c(C(N)=O)n1 ?
89

---

system: CYP1A2; assay: Induction of CYP1A2 mRNA expression in human HepaRG cells assessed as fold change at 15 uM incubated for 48 hrs; type: ADME, cell-based; conditions: read-out: FC
endpoint: fold induction at 48 h, 15 µM
Please reply with the value in numeric form only.

Here are 3 compounds together with their reported answers.
Cc1cc(-c2nc(C(=O)Nc3cn(CC4CCOC4)nc3C(N)=O)co2)ccn1 (centres undefined) : 4.5
Cc1cc(-c2nc(C(=O)Nc3cn(C4CCN(C)CC4)nc3C(N)=O)co2)ccn1 : 3.6
Cc1cc(-c2nc(C(=O)Nc3cn(CC(C)C)nc3C(N)=O)co2)ccn1 : 4

# ---- query compound ----
Under CYP1A2: fold induction at 48 h, 15 µM value of CC(=O)N1CCC(n2cc(NC(=O)c3coc(-c4ccnc(C)c4)n3)c(C(N)=O)n2)CC1 ?
3.2

---

molecular target: CYP2C8 (Homo sapiens, UniProt P10632); assay: Reversible inhibition of CYP2C8 in human liver microsomes assessed as residual activity at 5 uM using amodiaquine as substrate preincubated for 30 mins followed by substrate addition measured after 20 mins by LC-MS/MS analysis relative to control; format: ADME, Microsome; settings: probe amodiaquine, time 50 min, read-out: Activity
Sequence (P10632 whole entry): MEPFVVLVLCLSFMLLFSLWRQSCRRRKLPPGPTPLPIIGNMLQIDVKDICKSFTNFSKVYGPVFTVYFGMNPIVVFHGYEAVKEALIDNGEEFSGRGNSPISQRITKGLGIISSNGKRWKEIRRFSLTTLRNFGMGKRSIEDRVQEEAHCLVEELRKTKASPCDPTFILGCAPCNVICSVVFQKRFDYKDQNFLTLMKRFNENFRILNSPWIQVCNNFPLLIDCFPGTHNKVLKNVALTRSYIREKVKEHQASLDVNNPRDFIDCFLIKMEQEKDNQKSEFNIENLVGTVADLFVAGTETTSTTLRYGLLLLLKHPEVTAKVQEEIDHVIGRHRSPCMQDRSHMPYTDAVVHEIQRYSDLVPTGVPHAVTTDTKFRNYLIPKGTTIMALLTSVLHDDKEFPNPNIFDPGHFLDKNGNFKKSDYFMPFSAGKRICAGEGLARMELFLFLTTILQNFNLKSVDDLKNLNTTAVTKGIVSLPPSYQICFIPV
endpoint: activity at 20 min, 5 µM

Here are 2 molecules together with their reported answers.
CCn1cc(NC(=O)c2coc(-c3ccnc(C)c3)n2)c(C(N)=O)n1 : 103%
CCn1cc(NC(=O)c2csc(-c3ccncc3)n2)c(C(N)=O)n1 : 70%

# ---- query molecule ----
What does the record list as activity at 20 min, 5 µM for CCn1cc(NC(=O)c2coc(-c3ccncc3)n2)c(C(N)=O)n1 ?
103%

---

Reported activity at 20 min, 5 µM values for the following compounds.
biological target: CYP2C9 (Homo sapiens, UniProt P11712); assay: Reversible inhibition of CYP2C9 in human liver microsomes assessed as residual activity at 5 uM using diclofenac as substrate preincubated for 30 mins followed by substrate addition measured after 20 mins by LC-MS/MS analysis relative to control; type: ADME, Microsome; conditions: probe diclofenac, time 50 min, read-out: Activity
Sequence (P11712 whole entry): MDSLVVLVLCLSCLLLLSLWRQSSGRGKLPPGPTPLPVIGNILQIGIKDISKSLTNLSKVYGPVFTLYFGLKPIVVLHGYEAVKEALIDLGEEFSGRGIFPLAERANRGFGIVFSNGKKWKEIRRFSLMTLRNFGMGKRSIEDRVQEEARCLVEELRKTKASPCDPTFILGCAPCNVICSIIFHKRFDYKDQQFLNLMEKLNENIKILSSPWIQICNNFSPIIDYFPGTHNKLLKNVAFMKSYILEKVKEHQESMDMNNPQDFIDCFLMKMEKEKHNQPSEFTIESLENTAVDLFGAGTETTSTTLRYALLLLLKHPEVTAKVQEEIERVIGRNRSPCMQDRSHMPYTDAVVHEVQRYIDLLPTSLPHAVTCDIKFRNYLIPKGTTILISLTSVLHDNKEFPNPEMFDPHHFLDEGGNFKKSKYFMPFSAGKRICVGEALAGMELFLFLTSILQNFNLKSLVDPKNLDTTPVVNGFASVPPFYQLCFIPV
Express it in %; write the number only.

Here are 2 compounds together with their reported answers.
CCn1cc(NC(=O)c2coc(-c3ccnc(C)c3)n2)c(C(N)=O)n1 : 98
CCn1cc(NC(=O)c2csc(-c3ccncc3)n2)c(C(N)=O)n1 : 56

# ---- query compound ----
What does the record list as activity at 20 min, 5 µM for CCn1cc(NC(=O)c2coc(-c3ccncc3)n2)c(C(N)=O)n1 ?
59
